B1: C10orf62 (parent)
chain: GHSHHSHHGHPSHQSHSLPNRRH

variants of: B1; assay: protein stability index of a GFP-peptide fusion (GPS, HEK-293T) (PSI 1-6); higher = more stable; details: c terminus: native;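 further: lentivirally expressed fusions sorted by FACS into six bins by GFP to DsRed ratio, PSI derived from sequencing read proportions per bin multiplied by bin number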
Quantity Name: protein stability index

[[record]]
seq_text = "GHSHHSEHGHPSHQSHSLPNRRH [H7E]"
quantity_name = "protein stability index"
data_value = 2.1

[[record]]
seq_text = "GHSHHSHHGHPSHQSWSLPNRRH [H16W]"
quantity_name = "protein stability index"
data_value = 3.05

[[record]]
seq_text = "GHSHHSHHGHPSHQSHSLPNFRH [R21F]"
quantity_name = "protein stability index"
data_value = 2.13

[[record]]
seq_text = "GHSHHSHHGHPSHQSHSLGNRRH [P19G]"
quantity_name = "protein stability index"
data_value = 2.35

[[record]]
seq_text = "GHSHHSHHGHPSHQSHPLPNRRH [S17P]"
quantity_name = "protein stability index"
data_value = 4.04

[[record]]
seq_text = "GHSHHSHHGHPSHQSHSLPNRRT [H23T]"
quantity_name = "protein stability index"
data_value = 2.88

[[record]]
seq_text = "GHSHHSHHGHPSHQSHSLKNRRH [P19K]"
quantity_name = "protein stability index"
data_value = 2.15

[[record]]
seq_text = "GHSHHSHHGHPSHQSHSLCNRRH [P19C]"
quantity_name = "protein stability index"
data_value = 2.95

[[record]]
seq_text = "GHSHHSHHGHPSSQSHSLPNRRH [H13S]"
quantity_name = "protein stability index"
data_value = 2.65

